Some molecules, each annotated with its measured GAL3-TIM3 Blocking @ 3 ug/mL.
Target: T1, association of GAL3 and TIM3 (Homo sapiens, UniProt P17931)
T1 construct: full-length human Galectin-3 protein (Acro Biosystems, GA3-H5129); linker-spaced 6-histidine tag; purchased Acro Biosystems GA3-H5129 (Gal3); TM3-H5229 (TIM-3)
T1 sequence (P17931 2-250 limits assumed): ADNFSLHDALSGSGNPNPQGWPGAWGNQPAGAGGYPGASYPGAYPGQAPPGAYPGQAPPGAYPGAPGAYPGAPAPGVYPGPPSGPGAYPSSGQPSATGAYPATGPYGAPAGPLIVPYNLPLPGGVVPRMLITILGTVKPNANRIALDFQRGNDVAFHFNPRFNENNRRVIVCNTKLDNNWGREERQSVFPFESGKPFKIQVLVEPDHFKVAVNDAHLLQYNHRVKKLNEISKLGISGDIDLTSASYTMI
Test: GAL3-TIM3 blocking ELISA (Examples 24, 27)
Format: binding
Conditions: 3 ug/mL antibody
Please give a number only; it is taken to be in %.

Worked examples, 3 molecules total:
>  <Molecule>
13G4.2F8: murine anti-Gal3 antibody (antibody, V domains shown) VH: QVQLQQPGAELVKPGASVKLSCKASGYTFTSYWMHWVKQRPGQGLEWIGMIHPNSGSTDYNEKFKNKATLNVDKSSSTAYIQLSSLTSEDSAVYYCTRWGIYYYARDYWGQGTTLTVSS VL: DIVMTQSQKFMSTSVGERVSITCKASQNVGTNVAWYQQKAGQSLELLIYGASNRHTGVPDRFTGSGSGTDFTLTITNVQSEDMTNYFCEQYSNFPLTFGAGTKLELK

>  <GAL3-TIM3 Blocking @ 3 ug/mL (%)>
0

$$$$
>  <Molecule>
4A11.2B5: murine anti-Gal3 antibody, origin of IMT006-1 and IMT006-5 (antibody, V domains shown) VH: QVQLQQSGPELVKPGASVKISCKASGYSFTNYYIHWVKQRPGQGLEWIGWIYPGSGNTNYNEKFKGKATLTADTSSSTTNMQLSSLTSEDSAVYYCSTAPGGFDVWGSGTTVTVSS VL: DIVMTQAAFSNPVTLGTSASISCRSSKSLLHSDGITYLYWYLQRPGQSPQLLIYRMSNLASGVPDRFSGSGSGTDFTLRISRVEAEDVGVYYCAQMLEFPLTFGAGTKLELK

>  <GAL3-TIM3 Blocking @ 3 ug/mL (%)>
48

$$$$
>  <Molecule>
846.2H3: murine anti-Gal3 antibody (antibody, V domains shown) VH: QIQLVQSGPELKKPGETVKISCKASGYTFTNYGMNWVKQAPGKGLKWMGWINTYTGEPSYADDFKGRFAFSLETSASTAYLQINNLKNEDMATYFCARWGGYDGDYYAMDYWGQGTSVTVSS VL: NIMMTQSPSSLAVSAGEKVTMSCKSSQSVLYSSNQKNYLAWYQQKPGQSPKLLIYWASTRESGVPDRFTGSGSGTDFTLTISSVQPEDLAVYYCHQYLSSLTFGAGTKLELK

>  <GAL3-TIM3 Blocking @ 3 ug/mL (%)>
100

$$$$

Item: 24D12.2H9: murine anti-Gal3 antibody (antibody, V domains shown, VH of 24D12.2H9; VL of 24D12.2H9, murine anti-Gal3 antibody) VH: QVQLKQSGPGLVQPSQSLSITCTVSGFSLTSYGVHWVRQAPGKGLEWLGVIWSGGSTDYNAAFMSRLSISKDNSKSQVFFKMNSLQADDTAIYYCAKSPDGYDVAWFGYWGQGTLVTVSA VL: DIVMTQSHKFMSTSVGDRVSITCKASQDVRTAVAWYQQKPGQSPKLLIYWASTRHTGVPDRFTGSGSGTDFTLTLSNVQSEDLADYFCQQYSSYPWTFGGGTKLEIK | GAL3-TIM3 Blocking @ 3 ug/mL: 0

Item: 12G5.D7: murine anti-Gal3 antibody (antibody, V domains shown, VH of 12G5.D7; VL of 12G5.D7, murine anti-Gal3 antibody) VH: QVQLKQSGAELVRPGASVKLSCKASGYTFTDYYINWVKQRPGQGLEWIARIYPGTGNTDYNEKFKGRATLTAEKSSSTAYMQLSSLTSEDSAVYFCARFAYYYGSGGYFDYWGHGTTLTVSS VL: DILMTQSPSSMSVSLGDTVSITCHASQGINSNMGWLQQKPGKSFKGLIYHATNLEDGVPSRFSGSGSGADYSLTISSLESEDFADYYCVQYAQFPPTFGSGTKLEIK | GAL3-TIM3 Blocking @ 3 ug/mL: 12

Item: 2D10.2B2: murine anti-Gal3 antibody (antibody, V domains shown) VH: QVQLQQSGPELVKPGASVKISCKASGYTFTDYYINWVKQRPGQGLEWIGWIYPGSNDTKYNEKFKGKATLTVDTSSSTAYMQLGSLTSEDSAVYFCANYFGCSGWFFDVWGTGTTVTVSS VL: DIVMTQAAFSNPVTLGTSASISCRSSKSLLHSDGITYLYWYLQRPGQSPQLLIYRMSNLASGVPDRFSGSGSGTDFTLRISRVEAEDVGVYYCAQMIEFPLTFGAGTILELK | GAL3-TIM3 Blocking @ 3 ug/mL: 86

Item: 15F10.2D6: murine anti-Gal3 antibody (antibody, V domains shown) VH: EVQLVESGGGLVKPGGSLKLSCAASGFAFSSYAMSWVRQTPEKRLEWVATISDGGVYTYYTDHVKGRFTISRDNAEDNLYLQMSHLKSEDTAMYYCVRDGGYWGQGTTLTVSS VL: DVLMTQTPLSLPVSLGDQASISCRSSQSIVHNNGNTYLEWYLQKPGQSPKLLIYKVSNRFSGVPDRFSGSGSGTDFTLKISRVEAEDLGVYYCFQGSHVPLTFGGGTKLELK | GAL3-TIM3 Blocking @ 3 ug/mL: 19

Item: 23H9.2E4: murine anti-Gal3 antibody (antibody, V domains shown) VH: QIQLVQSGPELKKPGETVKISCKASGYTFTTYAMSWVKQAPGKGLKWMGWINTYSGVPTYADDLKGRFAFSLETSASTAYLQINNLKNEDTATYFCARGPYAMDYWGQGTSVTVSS VL: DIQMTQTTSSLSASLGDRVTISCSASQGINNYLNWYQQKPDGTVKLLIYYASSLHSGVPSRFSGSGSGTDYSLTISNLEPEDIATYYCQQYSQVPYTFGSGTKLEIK | GAL3-TIM3 Blocking @ 3 ug/mL: 80
